# Lookup of reported pIC50 keyed by entry
ASSAY_SYSTEM: BACE1 (Homo sapiens)
TEST_DETAILS: In Vitro Enzymatic BACE FRET (Fluorescence Resonance Energy Transfer) Assay
Format: biochemical
CONDITION_DESCRIPTION: Table 1; read-out: BACE1 FRET assay
pIC50: −log10 of the molar value.

Guide cases for pIC50, answers given:
molecule="COc1ccc2c(c1)C1(COC(N)=N1)c1cc(-c3ccc(OC(F)(F)F)cc3)ccc1O2 (centres unmarked)" measured_endpoint=pIC50 result="< 5.30"
molecule="COc1ccc2c(c1)C1(COC(N)=N1)c1cc(-c3cncnc3)ccc1O2 (centres unmarked)" measured_endpoint=pIC50 result="6.00 to 7.00"

Prompt: Report value: pIC50, system: BACE1 (Homo sapiens), molecule: Cc1ccc2c(c1)Oc1ccc(Br)cc1C21COC(N)=N1 (centres unmarked)
Completion: < 5.30

Prompt: Write down the reported pIC50 (system: BACE1 (Homo sapiens)) of Cc1ccc2c(c1)Oc1ccc(-c3cccc(Cl)c3)cc1C21COC(N)=N1 (centres unmarked)
Completion: < 5.30

Prompt: Give BACE1 (Homo sapiens) pIC50 for the following molecule: COc1ccc2c(c1)C1(COC(N)=N1)c1cc(-c3cccc(OC)c3F)ccc1O2 (centres unmarked)
Completion: 5.30 to 6.00

Prompt: Provide pIC50, recorded with BACE1 (Homo sapiens), of COc1ccc2c(c1)C1(COC(N)=N1)c1cc(-c3ccccc3C)ccc1O2 (centres unmarked)
Completion: < 5.30

Prompt: Lab note: record pIC50 of COc1cccc(-c2ccc3c(c2)C2(COC(N)=N2)c2ccc(C)cc2O3)c1F (centres unmarked) tested on BACE1 (Homo sapiens).
Completion: < 5.30

Prompt: Enter pIC50 (test system BACE1 (Homo sapiens)) for COc1ccc2c(c1)[C@]1(COC(N)=N1)c1cc(-c3cncnc3)ccc1O2
Completion: 6.00 to 7.00

Prompt: Specify the recorded pIC50 for CCCOc1ccc2c(c1)[C@@]1(COC(N)=N1)c1cc(-c3cncnc3)ccc1O2 , system: BACE1 (Homo sapiens).
Completion: 6.00 to 7.00

---

Measured IC50, listed per entry.
ASSAY_SYSTEM: BACE1 (Homo sapiens, UniProt P56817)
Sequence (P56817 46-501, species assumed): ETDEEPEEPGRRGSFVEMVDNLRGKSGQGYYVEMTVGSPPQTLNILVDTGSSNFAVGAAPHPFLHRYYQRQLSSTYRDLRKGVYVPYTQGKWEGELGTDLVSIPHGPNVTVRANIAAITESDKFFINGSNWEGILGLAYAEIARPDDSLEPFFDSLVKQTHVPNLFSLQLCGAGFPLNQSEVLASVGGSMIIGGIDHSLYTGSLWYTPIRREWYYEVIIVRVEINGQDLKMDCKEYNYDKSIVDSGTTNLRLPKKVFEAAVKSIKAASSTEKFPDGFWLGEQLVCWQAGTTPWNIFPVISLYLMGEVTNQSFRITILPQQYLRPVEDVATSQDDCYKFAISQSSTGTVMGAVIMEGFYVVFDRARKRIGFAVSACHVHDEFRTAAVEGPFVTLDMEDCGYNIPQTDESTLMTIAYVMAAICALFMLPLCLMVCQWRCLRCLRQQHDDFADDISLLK
TEST_DETAILS: In Vitro Enzymatic BACE FRET (Fluorescence Resonance Energy Transfer) Assay
Assay type: biochemical
CONDITION_DESCRIPTION: Table III; IC50's in uM ranges; read-out: BACE1 FRET assay

Prompt: Please tell me the measured IC50 for COc1ncc(-c2ccc3c(c2)[C@]2(COC(N)=N2)c2cc(OCC(C)(C)C)ccc2O3)cn1 ; system: BACE1 (Homo sapiens, UniProt P56817).
Completion: 0.1 to 1 µM

Prompt: Report its IC50 with BACE1 (Homo sapiens, UniProt P56817) as the test system: COc1ccc2c(c1)[C@@]1(COC(N)=N1)c1cc(C(=O)N3CCCC3)ccc1O2
Completion: > 5 µM

Prompt: Report measured IC50 on BACE1 (Homo sapiens, UniProt P56817); entry: CC(C)(O)C#Cc1ccc2c(c1)[C@]1(COC(N)=N1)c1cc(-c3cccnc3)ccc1O2 [151a]
Completion: < 0.1 µM

Prompt: Supply IC50 measured with BACE1 (Homo sapiens, UniProt P56817) for CC(C)(O)COc1ccc2c(c1)[C@]1(COC(N)=N1)c1cc(-c3cccnc3)ccc1O2 .
Completion: < 0.1 µM
